Recorded logP by entry
# Measurement Notes: log p determination
# Format: physicochemical
# Applied Conditions: acidic; isomer mixtures, the higher log p value is stated; Table 13; read-out: log p (acidic)
Reported Property: logP

compound="Cc1nsc(NC(=O)Cc2ccc(C3(C)OCC(C(C)(C)C)O3)cc2)c1Cl (centres unmarked)" val=4
compound="Cc1nsc(NC(=O)Cc2ccc(C3(C)OCC(COc4ccc(Cl)cc4)O3)cc2)c1Cl (centres unmarked)" val=4.24
compound="Cc1nsc(NC(=O)Cc2ccc(C3(C)OCC(c4ccc(Cl)c(Cl)c4)O3)cc2)c1Cl (centres unmarked)" val=4.82
compound=Cc1nsc(NC(=O)Cc2ccc(C3(C)OCC(CBr)(CBr)CO3)cc2)c1Cl val=4.21
compound="Cc1nsc(NC(=O)Cc2ccc(C3(C)OCC(CCl)O3)cc2)c1Cl (centres unmarked)" val=3.09
compound="Cc1nsc(NC(=O)Cc2ccc(C3(C)OCC(c4ccc(Cl)cc4)O3)cc2)c1Cl (centres unmarked)" val=4.35
compound="CCC1COC(C)(c2ccc(CC(=O)Nc3snc(C)c3Cl)cc2)O1 (centres unmarked)" val=3.23
compound="C=CCOCC1COC(C)(c2ccc(CC(=O)Nc3snc(C)c3Cl)cc2)O1 (centres unmarked)" val=3.23
compound="Cc1nsc(NC(=O)Cc2ccc(C3(C)OCC(c4ccccc4)O3)cc2)c1Cl (centres unmarked)" val=3.83
compound="CC=CCCCC1COC(C)(c2ccc(CC(=O)Nc3snc(C)c3Cl)cc2)O1 (centres unmarked)" val=4.4
compound="Cc1nsc(NC(=O)Cc2ccc(C3(C)OCC(c4cccc(Cl)c4)O3)cc2)c1Cl (centres unmarked)" val=4.32

====

Recorded logP by entry
# Measurement Notes: log p determination
# Type: physicochemical
# Applied Conditions: pH 2.3, pH 2.3; for Example 1 two values for the two isomers; read-out: log p (pH 2.3)
Reported Property: logP

compound=CC(=O)c1cccc(CC(=O)Nc2snc(C)c2Cl)c1 reported_property=logP val=2.14
compound="CCCCCCCCC1COC(C)(c2ccc(CC(=O)Nc3snc(C)c3Cl)cc2)O1 (centres unmarked)" reported_property=logP val=5.84
compound=CC(=O)c1cccc(CC(=O)Nc2nc(C)ns2)c1 reported_property=logP val=1.56
compound=CC(=O)c1ccc(CC(=O)Nc2snc(C)c2Cl)cc1 reported_property=logP val=2.12
compound=CCc1nsc(NC(=O)Cc2cccc(C(C)=O)c2)n1 reported_property=logP val=1.87
